assay: Clearance in end-stage renal disease patient without drug hydrolysis; format: ADME; conditions: human
RECORDED METRIC: clearance

[[record]]
input_smiles = "CC(=N)N1CC[C@H](SC2=C(C(=O)O)N3C(=O)[C@H]([C@@H](C)O)[C@H]3C2)C1"
obs_value = "48.7 mL/min"


* * *

experiment: Half life in iv dosed human; type: ADME, organism-based; details: in vivo
# Lookup of reported half-life keyed by entry
RECORDED METRIC: half-life

[[record]]
compound = "C[C@@H](O)[C@H]1C(=O)N2C(C(=O)O)=C(SCCNC=N)C[C@H]12 [IMIPENEM ANHYDROUS]"
recorded_metric = "half-life"
obs_value = "1 h"

[[record]]
compound = "CC(=N)N1CC[C@H](SC2=C(C(=O)O)N3C(=O)[C@H]([C@@H](C)O)[C@H]3C2)C1"
recorded_metric = "half-life"
obs_value = "1.2 h"


* * *

experiment: Elimination half life in human at 1 g, iv administered as single dose; format: ADME, organism-based; conditions: in vivo, read-out: beta t1/2 (converted)
RECORDED METRIC: half-life (min)

[[record]]
input_smiles = "C[C@@H](O)[C@H]1C(=O)N2C(C(=O)O)=C(S[C@@H]3CN[C@H](C(=O)Nc4cccc(C(=O)O)c4)C3)[C@H](C)[C@H]12"
measurement_units = "min"
obs_value = 240

